target: RPS6KA3 KD1 KD2 (human) (UniProt P51812); assay: radiometric filter-binding kinase assay, Kinase HotSpot; details: compound 0.5 µM; ATP 10 µM
Sequence (P51812 whole entry, looked up): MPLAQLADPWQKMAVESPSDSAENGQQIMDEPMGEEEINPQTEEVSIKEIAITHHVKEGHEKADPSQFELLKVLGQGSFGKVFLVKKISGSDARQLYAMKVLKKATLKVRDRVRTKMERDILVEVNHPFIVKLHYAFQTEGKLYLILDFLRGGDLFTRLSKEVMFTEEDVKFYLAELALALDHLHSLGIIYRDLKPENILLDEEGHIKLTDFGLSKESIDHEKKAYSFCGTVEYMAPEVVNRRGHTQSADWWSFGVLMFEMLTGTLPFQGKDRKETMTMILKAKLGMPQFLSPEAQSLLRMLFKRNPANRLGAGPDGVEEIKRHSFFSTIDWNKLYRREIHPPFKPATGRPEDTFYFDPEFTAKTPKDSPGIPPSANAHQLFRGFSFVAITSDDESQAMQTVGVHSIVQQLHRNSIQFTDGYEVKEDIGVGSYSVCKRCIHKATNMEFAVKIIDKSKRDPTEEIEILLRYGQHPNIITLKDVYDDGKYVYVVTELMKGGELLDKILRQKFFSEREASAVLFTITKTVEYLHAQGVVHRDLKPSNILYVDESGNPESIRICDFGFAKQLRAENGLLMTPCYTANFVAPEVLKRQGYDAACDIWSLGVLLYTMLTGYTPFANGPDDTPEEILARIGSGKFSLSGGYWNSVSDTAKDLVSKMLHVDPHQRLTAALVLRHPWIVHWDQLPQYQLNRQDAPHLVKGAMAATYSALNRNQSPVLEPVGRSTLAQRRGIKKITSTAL
Field: residual activity. Provide a value for each of the compounds that follow.
Give bare numbers, in %.

> print(dat)
                        molecule.smiles         observable  recorded.result
1  c1ccc(-c2n[nH]cc2-c2ccnc3ccccc23)nc1  residual activity              101

Please go through the list and note residual activity for each compound.
1. COc1ccc2c(c[n+](C)c3c4cc5c(cc4ccc23)OCO5)c1OC
2. O=C(Nc1cccc(Nc2nccc(Nc3cccc(C(F)(F)F)c3)n2)c1)C1CC1
3. CNc1cc2c(Nc3cccc(Br)c3)ncnc2cn1

A.
1. 94.6
2. 100
3. 86.6
